Recorded values, source ChEMBL document CHEMBL1157539.

test system: Plasmodium falciparum; assay: GSK_TCMDC: Inhibition of Plasmodium falciparum 3D7 in whole red blood cells, using parasite LDH activity as an index of growth. Test compounds present at 2uM; type: functional
measured endpoint: Inhibition (%)
# unit: % | format: bare number

Some solved entries appear below for comparison.
Cc1nc(-c2cccc(Nc3nccc(NCC(O)c4ccccc4C(F)(F)F)n3)c2)cs1 (centres undefined): 97
O=C(NCC1CCC(C(=O)NCCN2CCCCC2)CC1)c1ccc(O)c(-c2ccc(Cl)c(Cl)c2)c1 (centres undefined): 91
Cc1ccc(CNC(=O)[C@H](CC(C)C)Nc2cc(C)nc(NCc3ccccc3C)n2)cc1.O=C(O)C(F)(F)F: 87

Shift focus to the following entry.
The molecule listed as `N#Cc1ccc(CN2CCCN(c3ccc(NC(=O)c4ccc(F)cc4)cc3)CC2)cc1.O=C(O)C(F)(F)F` shows Inhibition equal to 90
